experimental target: T1, TROP2 antigen (extracellular region of TROP2, expressed in 293F cells) (human, UniProt P09758 27-274)
T1 construct: extracellular domain; The antigen was coated on ELISA plates; For the Octet assay it was biotin-labelled and immobilized on streptavidin sensors; also called TROP2 protein
T1 sequence (looked up): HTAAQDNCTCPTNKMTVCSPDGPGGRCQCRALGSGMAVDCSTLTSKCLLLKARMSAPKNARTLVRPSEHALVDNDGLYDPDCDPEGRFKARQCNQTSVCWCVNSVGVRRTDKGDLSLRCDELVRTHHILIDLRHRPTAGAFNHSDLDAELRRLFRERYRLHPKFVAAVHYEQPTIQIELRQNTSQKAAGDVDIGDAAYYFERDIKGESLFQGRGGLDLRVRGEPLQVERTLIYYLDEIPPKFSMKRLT
test protocol: BLI (ForteBio Octet), biotin-labelled antigen on streptavidin sensor, antibody in solution
Catalogue of kon readings, one per entry.
endpoint label: kon (M⁻¹ s⁻¹)

1) 4D3 humanized antibody (antibody, V domains shown, also called Hu4D3; hu4D3) VH: QVQLVQSGAEVKKPGASVKLSCKASGYTFTSFDINWVRQAPEQRLEWMGWIFPGDGNTKYSQKFQGRATITRDTSASTAYMELSSLRSEDTAVYYCVRGEALYYFDYWGQGTLVTVSS VL: DIQMTQSPSSLSASVGDRVTITCRASQDINKYLAWYQQKPGKVPKLLIYSTSTLQSGVPSRFSGSGSGTDFTLTISSLQPEDVATYYCLQYDDLFTFGQGTKLEIKR : 139000
2) 4D3 chimeric antibody (antibody, human IgG1, kappa, V domains shown, The entries begin with a leader (signal) peptide; also called ch4D3) VH: QVQLQQSGAELVKPGASVKLSCKASGYTFTSFDINWVRQRPEQGLEWIGWIFPGDGNTKSNEKFKGKATLTTDKSSSTAYMQLSRLTSEDSAVYFCVRGEALYYFDYWGPGTTLTVSS VL: DIQMTQSPSSLSASLGGKVTITCKPSQDINKYIAWYQHKPGKGPRLLIHSTSTLQPGIPSRFSGSGSGRDYSFTISNLEPEDIATYYCLQYDDLFTFGSGTKLEIKR : 235000
3) 7F11 chimeric antibody (antibody, human IgG1, kappa, V domains shown, The entries begin with a leader (signal) peptide; also called ch7F11) VH: QVQLQQSGPEVVKPGASVKMSCKASGYTFTDHVISWVKQRTGQGLEWIGQIYPGSDNSYYSEKLKDKATLTADKSSNTAYMQLVSLTSEDSAVYFCAREGYGYGKNGVGYAMDYWGQGTSVTVSS VL: SIVMTQTPKFLLVSAGDRVTITCKASQSVSNDVVWYQQKPGQSPKLLIYYASNRYTGVPDRFTGSGYGTDFTFTISTAQAEDLAVYFCQQDYSSPWTFGGGTKLEIKR : 243000
4) 7F11 humanized antibody (antibody, V domains shown, also called Hu7F11; hu7F11) VH: QVQLVQSGAEVKKPGASVKVSCKASGYTFTDHVISWVRQATGQGLEWMGQIYPGSDNSYYAQKFQGRVTLTADKSINTAYMELSSLRSEDTAVYYCAREGYGYGKNGVGYAMDYWGQGTLVTVSS VL: DIVMTQSPDSLAVSLGERATINCKASQSVSNDVVWYQQKPGQPPKLLIYYASNRYTGVPDRFSGSGYGTDFTLTISSLQAEDVAVYYCQQDYSSPWTFGGGTKVEIKR : 186000
